- assay.target: S1-Ig (12-510) (SARS-CoV; human, UniProt P59594 12-510)
- test.details: ELISA, coated S1-IgG 12-510
quantity.measured: Reactivity S1-IgG (ELISA OD)
Supply the numeric figure in OD, leaving out any unit text.

Some binders with recorded Reactivity S1-IgG (ELISA OD):
- 6B1 (antibody, V domains shown) VH: QVQLVESGGGVVQPGTSLRLSCAASGFTFSSYGIHWVRQAPGKGLEWVAVIWYDGSNKFHADSVKGRFTISRDNSKNTLYLQMNSLRAEDTAVYYCARDPLGYCSSTSCSYFDYWGQGTLVTVSS VL: DIQMTQSPSSVSASVGDRVTITCRASQGISNWLAWYQQKPGKAPKLLIYAASSLQSGVPSRFSGSGSGTDFTLTISSLQPEDFATYYCQQANNFPLTFGGGTKVEIK: 1.17
- 5D6 (antibody, V domains shown) VH: QVQLVQSGAEVKKPGASVKVSCKASGYTFTSYGISWVRQAPGQGLEWMGWISAYNGNTNYAQKLQGRVTMTTDTSTNTAYMELRSLRSDDTAVYYCAVGRYLDYWGQGTLVTVSS VL: DIQMTQSPSSLSASVGDRVTITCRASQDIRNDLGWYQQKPGKAPKRLIYAASSLQSGVPSRFSGSGSGTEFTLTISSLQPEDFATYYCLQYNSYPLTFGGGTKVEIK: 1.31

Now, please, on to the next binder.
Reported Reactivity S1-IgG (ELISA OD) for 1B5 (antibody, V domains shown) VH: QVQLVESGGGVVQPGRSLRLSCAASGFTFSSYGMHWVRQAPGKGLEWVAVIWYDGSNKYYADSVKGRFTISRDNSKNTLYLQMNSLRAEDTAVYYCARGDFYWFDPWGQGTLVTVSS VL: DIQMTQSPSSLSASVGDRVTITCRASQGIRSDLGWYQQRPGKTPKRLIYAASSLQSGVPSRFSGSGSGTEFTLTISSLQPEDFATYYCQQYNSYPLTFGGGTKVEIK was 1.29

FYI, the data here is from patent US20080248043A1.
